# measured_target: EHMT1 (Homo sapiens, UniProt Q9H9B1)
# Sequence (Q9H9B1 whole entry, species assumed): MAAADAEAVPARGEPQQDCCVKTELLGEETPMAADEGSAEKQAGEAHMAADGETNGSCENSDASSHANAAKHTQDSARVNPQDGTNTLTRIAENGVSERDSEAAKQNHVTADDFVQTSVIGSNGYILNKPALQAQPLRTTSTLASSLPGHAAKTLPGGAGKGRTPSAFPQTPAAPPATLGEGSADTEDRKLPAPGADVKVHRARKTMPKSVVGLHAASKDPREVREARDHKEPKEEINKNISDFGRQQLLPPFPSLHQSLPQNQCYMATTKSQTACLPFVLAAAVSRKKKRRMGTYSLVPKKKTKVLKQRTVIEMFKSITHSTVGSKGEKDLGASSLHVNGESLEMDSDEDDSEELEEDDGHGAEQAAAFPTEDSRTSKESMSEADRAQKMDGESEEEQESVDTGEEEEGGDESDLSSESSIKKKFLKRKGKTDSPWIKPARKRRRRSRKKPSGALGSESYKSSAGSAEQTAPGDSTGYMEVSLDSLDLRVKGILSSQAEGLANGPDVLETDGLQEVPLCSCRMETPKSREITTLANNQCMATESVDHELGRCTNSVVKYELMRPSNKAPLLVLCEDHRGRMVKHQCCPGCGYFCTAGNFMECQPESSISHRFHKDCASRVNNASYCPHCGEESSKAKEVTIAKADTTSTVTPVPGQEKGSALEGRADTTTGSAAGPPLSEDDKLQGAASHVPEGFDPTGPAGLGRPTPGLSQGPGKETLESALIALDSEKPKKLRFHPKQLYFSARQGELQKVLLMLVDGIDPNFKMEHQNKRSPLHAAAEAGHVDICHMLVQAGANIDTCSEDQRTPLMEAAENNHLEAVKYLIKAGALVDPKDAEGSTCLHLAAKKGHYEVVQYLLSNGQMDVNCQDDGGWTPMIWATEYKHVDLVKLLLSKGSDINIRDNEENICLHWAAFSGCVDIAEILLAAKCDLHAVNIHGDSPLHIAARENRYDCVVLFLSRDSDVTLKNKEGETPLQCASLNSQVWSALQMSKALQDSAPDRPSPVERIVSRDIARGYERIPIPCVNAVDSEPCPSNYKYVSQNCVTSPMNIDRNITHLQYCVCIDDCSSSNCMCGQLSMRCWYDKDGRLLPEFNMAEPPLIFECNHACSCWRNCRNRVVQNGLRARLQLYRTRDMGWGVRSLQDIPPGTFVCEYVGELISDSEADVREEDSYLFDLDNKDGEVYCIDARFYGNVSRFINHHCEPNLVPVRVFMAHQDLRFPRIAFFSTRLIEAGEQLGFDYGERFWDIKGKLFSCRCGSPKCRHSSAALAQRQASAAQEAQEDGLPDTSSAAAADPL
# assay_info: EHMT1 enzyme assay on peptide substrate (EHMT1 PEP)
# Type: biochemical
# setup_conditions: Table VI; read-out: EHMT1 PEP IC50
pIC50: −log10 of the molar value.
Quick list: pIC50 per entry.

Exam item: Record CNc1ccnc(Nc2ccc(OC)c(OCC(C)(O)CN3CCC3)c2)n1 (centres unmarked) : what is its pIC50 with EHMT1 (Homo sapiens, UniProt Q9H9B1)?
Marked response: 5.00 to 6.00

Exam item: Record CNc1ccnc(Nc2ccc(OC)c(OCCC(C)NC)c2)n1 (centres unmarked) : what is its pIC50 with EHMT1 (Homo sapiens, UniProt Q9H9B1)?
Marked response: 6.00 to 7.00

Exam item: Record `CNc1cc(C)nc(Nc2ccc(OC)c(OC[C@H](O)CNC3CCC3)c2)n1` : what is its pIC50 with EHMT1 (Homo sapiens, UniProt Q9H9B1)?
Marked response: 6.00 to 7.00

Exam item: Record `CNc1cc(C)nc(Nc2cc(OCCCN3CCCC3)c3ncnn3c2)n1` : what is its pIC50 with EHMT1 (Homo sapiens, UniProt Q9H9B1)?
Marked response: 5.00 to 6.00

Exam item: Record `CNc1cc(C)nc(Nc2cc(OCCCN3CCCC3)c3nncn3c2)n1` : what is its pIC50 with EHMT1 (Homo sapiens, UniProt Q9H9B1)?
Marked response: 5.00 to 6.00

Exam item: Record `COc1cc2c(C3CN(C)C3)nc(C)nc2cc1OCCCN1CCCC1` : what is its pIC50 with EHMT1 (Homo sapiens, UniProt Q9H9B1)?
Marked response: 5.00 to 6.00

Exam item: Record COc1cc2c(C3CCN(C)C3)nc(C)nc2cc1OCCCN1CCCC1 (centres unmarked) : what is its pIC50 with EHMT1 (Homo sapiens, UniProt Q9H9B1)?
Marked response: 6.00 to 7.00

Exam item: Record `CNc1ccnc(Nc2ccc(OC)c(OC[C@@H](O)CN3CCC3)c2)n1` : what is its pIC50 with EHMT1 (Homo sapiens, UniProt Q9H9B1)?
Marked response: 6.00 to 7.00

====

Quick list: IC50 per entry.
# measured_target: human EHMT2 913-1193 (Homo sapiens, UniProt Q96KQ7)
# Construct: recombinant purified human EHMT2 913-1193, Viva; purchased Viva
# Sequence (Q96KQ7 913-1193): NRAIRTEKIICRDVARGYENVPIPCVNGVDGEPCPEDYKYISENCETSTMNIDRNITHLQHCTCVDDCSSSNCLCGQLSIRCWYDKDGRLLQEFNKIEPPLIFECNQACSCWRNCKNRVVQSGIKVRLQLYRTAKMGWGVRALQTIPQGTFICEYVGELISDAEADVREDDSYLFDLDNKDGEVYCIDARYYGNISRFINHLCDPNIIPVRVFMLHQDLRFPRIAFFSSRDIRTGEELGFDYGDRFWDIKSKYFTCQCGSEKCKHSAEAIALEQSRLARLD
# assay_info: EHMT2 enzyme assay on histone peptide substrate (EHMT2 PEP)
# Assay type: biochemical
# setup_conditions: Table III; read-out: EHMT2 PEP (IC50 μM)

Exam item: Returns the measured IC50 for the input molecule. Input: CNc1ccnc(Nc2ccc(OC)c(OCCCN3CCC(O)C3)c2)n1 (stereo not shown)
Marked response: < 0.1 µM

Exam item: Returns the measured IC50 for the input molecule. Input: CCCN1CCC(COc2cc(Nc3nccc(NC)n3)ccc2OC)C1 (stereo not shown)
Marked response: 0.1 to 1 µM

Exam item: Returns the measured IC50 for the input molecule. Input: `CCc1cc(NC)nc(Nc2ccc(OC)c(OCCCN3CC[C@@H](F)C3)c2)n1`
Marked response: 0.1 to 1 µM

Exam item: Returns the measured IC50 for the input molecule. Input: `CNc1cc(C)nc(Nc2ccc(OC)c(O[C@H]3C[C@@H](CN(C)C)C3)c2)n1`
Marked response: > 10 µM

Exam item: Returns the measured IC50 for the input molecule. Input: `COc1ccc(Nc2nccc3[nH]ccc23)cc1OCCCN1CCCC1`
Marked response: 1 to 10 µM

# ---- query molecule ----
Exam item: Returns the measured IC50 for the input molecule. Input: COc1ccc(Nc2nccc(NCC3CCOCC3)n2)cc1OC1CCC2(CC1)CCN(C)C2 (stereo not shown)
Marked response: > 10 µM
